Value source: ChEMBL document CHEMBL1138114

- Target Desc: Integrin alpha-V/beta-3 (Homo sapiens, UniProt P05106+P06756)
- Sequence (P05106 27-788 limits assumed): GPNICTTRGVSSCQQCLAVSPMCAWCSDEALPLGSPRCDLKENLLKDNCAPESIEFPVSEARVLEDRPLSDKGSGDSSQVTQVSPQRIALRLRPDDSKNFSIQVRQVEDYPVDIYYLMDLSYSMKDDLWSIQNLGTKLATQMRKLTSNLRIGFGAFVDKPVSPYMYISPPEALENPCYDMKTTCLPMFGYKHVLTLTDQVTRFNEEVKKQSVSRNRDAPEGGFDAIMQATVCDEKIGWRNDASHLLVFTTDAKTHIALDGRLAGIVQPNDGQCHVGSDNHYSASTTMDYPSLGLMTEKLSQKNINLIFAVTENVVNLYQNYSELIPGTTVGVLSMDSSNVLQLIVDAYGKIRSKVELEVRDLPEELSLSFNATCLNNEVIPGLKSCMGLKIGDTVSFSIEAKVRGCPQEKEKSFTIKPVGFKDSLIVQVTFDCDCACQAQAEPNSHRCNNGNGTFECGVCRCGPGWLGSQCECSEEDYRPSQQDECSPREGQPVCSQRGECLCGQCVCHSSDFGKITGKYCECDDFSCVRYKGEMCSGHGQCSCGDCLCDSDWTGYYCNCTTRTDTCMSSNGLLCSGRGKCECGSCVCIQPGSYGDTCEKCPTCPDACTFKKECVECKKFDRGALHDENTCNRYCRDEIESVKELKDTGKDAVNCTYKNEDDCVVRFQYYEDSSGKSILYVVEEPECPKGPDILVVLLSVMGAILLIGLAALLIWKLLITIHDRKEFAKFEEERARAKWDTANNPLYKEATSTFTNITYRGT
- Sequence (P06756 31-889 limits assumed): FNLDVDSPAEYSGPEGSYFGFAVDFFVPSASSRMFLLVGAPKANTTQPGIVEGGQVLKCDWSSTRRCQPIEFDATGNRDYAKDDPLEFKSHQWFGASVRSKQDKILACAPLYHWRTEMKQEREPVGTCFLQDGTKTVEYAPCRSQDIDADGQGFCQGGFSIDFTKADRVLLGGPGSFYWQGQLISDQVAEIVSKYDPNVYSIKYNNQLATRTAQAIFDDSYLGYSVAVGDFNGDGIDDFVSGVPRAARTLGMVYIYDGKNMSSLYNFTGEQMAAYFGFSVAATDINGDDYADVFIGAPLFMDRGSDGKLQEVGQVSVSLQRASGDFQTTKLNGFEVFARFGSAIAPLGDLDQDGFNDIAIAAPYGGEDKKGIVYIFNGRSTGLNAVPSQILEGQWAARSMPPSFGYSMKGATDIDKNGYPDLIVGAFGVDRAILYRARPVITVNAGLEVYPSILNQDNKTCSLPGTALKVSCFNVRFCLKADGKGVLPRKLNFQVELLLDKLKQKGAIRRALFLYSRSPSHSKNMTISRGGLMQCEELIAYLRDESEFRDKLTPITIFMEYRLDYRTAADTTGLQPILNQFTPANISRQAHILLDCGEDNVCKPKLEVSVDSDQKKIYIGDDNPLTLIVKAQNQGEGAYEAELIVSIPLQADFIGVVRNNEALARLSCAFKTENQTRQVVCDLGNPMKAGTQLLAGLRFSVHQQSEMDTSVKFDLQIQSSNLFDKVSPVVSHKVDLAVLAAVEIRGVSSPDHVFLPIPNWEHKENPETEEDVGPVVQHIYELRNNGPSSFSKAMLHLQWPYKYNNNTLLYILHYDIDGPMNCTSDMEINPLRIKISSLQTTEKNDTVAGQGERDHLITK
- Sequence (P06756 891-1048 limits assumed): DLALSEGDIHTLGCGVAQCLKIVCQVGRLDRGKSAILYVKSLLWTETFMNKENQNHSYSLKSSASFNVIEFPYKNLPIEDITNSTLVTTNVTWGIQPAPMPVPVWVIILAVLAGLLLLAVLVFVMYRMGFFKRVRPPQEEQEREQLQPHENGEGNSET
- Experimental Protocol: Inhibition of Integrin alphav-beta3 receptor by SPRA assay
- Type: protein-complex assay
Attribute Measured: IC50 (nM)
Response body: numeric value in nM, unit text excluded.

Example compounds with recorded IC50:
# Compound, Readout Number
records = [
    ("Cc1ncc(C(CC(=O)O)Cc2nc(CCCc3ccc4c(n3)NCCC4)no2)s1 (stereo not drawn)", 1.28),
    ("O=C(O)CC(Cc1nc(CCCc2ccc3c(n2)NCCC3)no1)c1cnc(C2CC2)s1 (stereo not drawn)", 1.43),
]

Then this compound:
Case O=C(O)CC(Cc1nc(CCCc2ccc3c(n2)NCCC3)no1)c1cccnc1 (stereo not drawn) , Integrin alpha-V/beta-3 (Homo sapiens, UniProt P05106+P06756), IC50 recorded as 1.6
